# System: IGROV1 ovarian
# run description: NCI tumour cell line growth inhibition, 48 h

| compound | TGI |
| --- | --- |
| C=C[C@]1(C)CCC2=C(CCC3C2(C)CCC[C@]3(C)CO)C1 (stereo not given in full) | > 100 µM |
| CC(C)NCC(O)COC(=O)c1cccs1 (stereo not given) | > 100 µM |
| C=C1C(=O)O[C@H]2[C@H]1CC/C(Cn1cc(Cn3ccc4ccccc43)nn1)=C\CC[C@@]1(C)O[C@@H]21 | 3.61 µM |
| CCOC(=O)c1nc2ccccc2nc1NCc1ccc(OC)cc1 | > 100 µM |
| O=C1C2=Cc3ccccc3OC2(O)Oc2cc(O)ccc21 (stereo not given) | > 100 µM |
| O=CN1CCN(C(=O)c2cc(Cl)cc(Cl)c2)C1=S | 34.7 µM |
| CN[C@]12CC3(C=CC(=O)C=C3)O[C@@]1(Cc1ccc(OC)cc1)N(C)C(=O)N2 | 4.1 µM |
| Cc1c2c(nn1C(=O)c1nn(-c3ccc(Cl)cc3)cc1O)-c1ccccc1CC2 | > 100 µM |
| COc1ccc(C(=O)N2CCc3c([nH]c4ccccc34)C2C(=O)O)o1 (stereo not given) | > 10 µM |
| NC(CNO)C(=O)O (stereo not given) | > 100 µM |
| CC1(C)OC(C(N)=O)=C(C(N)=O)O1 | > 100 µM |
| COc1ccc(N=C2C(=O)C3=C(OC(C)(C)CC3)c3ccccc32)cc1 | 11.2 µM |
| Clc1ccc(Nc2nc(Cl)c3[nH]cnc3n2)cc1Cl | > 100 µM |
| O=C(Nc1ccccc1)Nc1cccc(-n2cc(-c3ccncc3)c(-c3ccc(O)c(Cl)c3)n2)c1 | 41.4 µM |
| O=C(CCN1CC2CCC(CC2)C1)c1cccs1 | 25.8 µM |
| Cc1ccc(S(=O)(=O)/N=c2\ssc(Nc3ccccc3)c2Cl)cc1 | > 50 µM |
| CCOC(=O)n1[nH]c(=O)n(-c2ccccc2)c1=O | > 100 µM |
| COc1cc(-c2cc(=O)c3ccccc3o2)ccc1N | > 100 µM |
| COC(=O)C1C(O)CCC2CN3CCc4c([nH]c5cccc(OC)c45)C3CC21 (stereo not given) | > 100 µM |
| C=C1C(=O)O[C@H]2[C@H]1CC/C(COC(=O)CCCCCCCCC(=O)OC/C1=C/CC[C@@]3(C)O[C@H]3[C@H]3OC(=O)C(=C)[C@@H]3CC1)=C\CC[C@@]1(C)O[C@@H]21 | 4.24 µM |
| CCOC(=O)c1c(-c2ccccc2)[n+](=O)c2ccc(Cl)cc2n1[O-] | 16.5 µM |
| COC(=O)C1=CN=C(C(=O)OC)NN1 | > 100 µM |
| O=C(O)CC(Nc1ccccc1)C(=O)O (stereo not given) | > 100 µM |
| COC(=O)C1C(C)N1C (stereo not given) | > 100 µM |
| COC(=O)[C@@H]1C[C@H]([Se]c2ccccc2)CN1S(=O)(=O)c1ccc(C)cc1 | > 100 µM |
